assay: Toxicity against human Leukocyte cells assessed induction of structural damage by microscopy; format: cell-based; also: test concentration or dose not given here
parameter: Activity

Answered examples (5):
smilesRecord: CCCCCCCCCCCCCCn1cc[n+](C)c1.O=S(=O)([N-]S(=O)(=O)C(F)(F)F)C(F)(F)F
result: Non-toxic
--
smilesRecord: CCCCCCCCCCn1cc[n+](C)c1.[Cl-]
result: Non-toxic
--
smilesRecord: CCCCCCCCCCn1cc[n+](C)c1.CS(=O)(=O)[O-]
result: Non-toxic
--
smilesRecord: CCCCCCCCCCCCCCCCn1cc[n+](C)c1.[Cl-]
result: Non-toxic
--
smilesRecord: CCCCCCCCCCCCCCCCn1cc[n+](C)c1.F[P-](F)(F)(F)(F)F
result: Non-toxic

Query string: Recorded Activity for `CCCCCCCCCCCCCCCCn1cc[n+](C)c1.F[B-](F)(F)F` , please?
Result string: Non-toxic
